compounds and their reported Minimal inhibitory concentration PA^g
Test system: P. aeruginosa PA01 (H103)
Type: cell-based, Pseudomonas aeruginosa
Assay conditions: H103, 18 h
Non-standard residues stand in square brackets, D forms with d. Residues, ends and D or L forms follow the SMILES beside them. N(4-Br-benzyl)Gly = O=C(O)CNCc1ccc(Br)cc1; NBzl(4-I)Gly = O=C(O)CNCc1ccc(I)cc1; Nphe = O=C(O)CNCc1ccccc1; Nlys = NCCCCNCC(=O)O

Known results for compounds:
INSERT INTO measurements (compound, recorded_metric, result) VALUES
  ('NCCCCNCC(=O)N(CC(=O)N(CCCCN)CC(=O)N(CC(=O)N(CCCCN)CC(=O)N(CC(=O)N(CCCCN)CC(=O)N(CC(=O)N(CCCCN)CC(=O)N(CC(=O)N(CCCCN)CC(=O)N(CC(N)=O)Cc1ccc(I)cc1)Cc1ccc(I)cc1)Cc1ccc(I)cc1)Cc1ccc(I)cc1)Cc1ccc(I)cc1)Cc1ccc(I)cc1 [Compound 32] (H-[Nlys][NBzl(4-I)Gly][Nlys][NBzl(4-I)Gly][Nlys][NBzl(4-I)Gly][Nlys][NBzl(4-I)Gly][Nlys][NBzl(4-I)Gly][Nlys][NBzl(4-I)Gly]-NH2)', 'Minimal inhibitory concentration PA^g', '> 512 µg/mL'),
  ('NCCCCNCC(=O)N(CC(=O)N(CCCCN)CC(=O)N(CC(=O)N(CCCCN)CC(=O)N(CC(=O)N(CCCCN)CC(=O)N(CC(N)=O)Cc1ccccc1)Cc1ccccc1)Cc1ccccc1)Cc1ccccc1 [Compound 10] (H-[Nlys][Nphe][Nlys][Nphe][Nlys][Nphe][Nlys][Nphe]-NH2)', 'Minimal inhibitory concentration PA^g', '> 512 µg/mL'),
  ('NCCCCNCC(=O)N(CC(=O)N(CCCCN)CC(=O)N(CC(=O)N(CCCCN)CC(=O)N(CC(=O)N(CCCCN)CC(=O)N(CC(=O)N(CCCCN)CC(=O)N(CC(N)=O)Cc1ccccc1)Cc1ccccc1)Cc1ccccc1)Cc1ccccc1)Cc1ccccc1 [Compound 19] (H-[Nlys][Nphe][Nlys][Nphe][Nlys][Nphe][Nlys][Nphe][Nlys][Nphe]-NH2)', 'Minimal inhibitory concentration PA^g', '512 µg/mL'),
  ('NCCCCNCC(=O)N(CC(=O)N(CCCCN)CC(=O)N(CC(=O)N(CCCCN)CC(=O)N(CC(=O)N(CCCCN)CC(=O)N(CC(=O)N(CCCCN)CC(=O)N(CC(N)=O)Cc1ccc(Br)cc1)Cc1ccccc1)Cc1ccc(Br)cc1)Cc1ccccc1)Cc1ccc(Br)cc1 [Compound 26] (H-[Nlys][N(4-Br-benzyl)Gly][Nlys][Nphe][Nlys][N(4-Br-benzyl)Gly][Nlys][Nphe][Nlys][N(4-Br-benzyl)Gly]-NH2)', 'Minimal inhibitory concentration PA^g', '512 µg/mL'),
  ('NCCCCNCC(=O)N(CC(=O)N(CCCCN)CC(=O)N(CC(=O)N(CCCCN)CC(=O)N(CC(N)=O)Cc1ccccc1)Cc1ccccc1)Cc1ccccc1 [Compound 1] (H-[Nlys][Nphe][Nlys][Nphe][Nlys][Nphe]-NH2)', 'Minimal inhibitory concentration PA^g', '> 512 µg/mL');

Consider the record given below.
*Q* Name the reported Minimal inhibitory concentration PA^g value associated with the compound NCCCCNCC(=O)N(CC(=O)N(CCCCN)CC(=O)N(CC(=O)N(CCCCN)CC(=O)N(CC(=O)N(CCCCN)CC(=O)N(CC(N)=O)Cc1ccc(I)cc1)Cc1ccc(I)cc1)Cc1ccc(I)cc1)Cc1ccc(I)cc1 [Compound 14] (H-[Nlys][NBzl(4-I)Gly][Nlys][NBzl(4-I)Gly][Nlys][NBzl(4-I)Gly][Nlys][NBzl(4-I)Gly]-NH2)
*A* > 512 µg/mL

Each recorded value in this set is attributed to paper PMC7481290.
